Test: Plasma pharmacokinetics in phase I patients
Type: in vivo, human
Conditions: human, plasma, oral, 325 mg once daily, cycle 1, day 28; 325 mg once daily; dose-escalation cohort; n = 3; median (range); read-out: t max
READOUT_KIND: Tmax (h)
Return type: number; implicit unit h.

Task: Query (compound): COc1cc(N2CCC(N3CCN(C)CC3)CC2)ccc1Nc1ncnc(Nc2ccccc2S(=O)(=O)C(C)C)n1 ; field requested: Tmax
Result: 4

----------
Experiment: Plasma pharmacokinetics in phase I patients
Assay type: in vivo, human
Conditions: human, in vivo, t max
READOUT_KIND: Tmax (h)
Return type: number; implicit unit h.

Task: Query (compound): COc1cc(N2CCC(N3CCN(C)CC3)CC2)ccc1Nc1ncnc(Nc2ccccc2S(=O)(=O)C(C)C)n1 ; field requested: Tmax
Result: 4

----------
Test: Plasma pharmacokinetics in phase I patients
Type: in vivo, human
Conditions: human, plasma, oral, 800 mg, cycle 1, day 1; 800 mg once daily; dose-escalation cohort; n = 3; mean (standard deviation); read-out: AUC24
READOUT_KIND: AUC (ng·h/mL)
Return type: number; implicit unit ng·h/mL.

Task: Query (compound): COc1cc(N2CCC(N3CCN(C)CC3)CC2)ccc1Nc1ncnc(Nc2ccccc2S(=O)(=O)C(C)C)n1 ; field requested: AUC
Result: 21800

----------
Assay: Plasma pharmacokinetics in phase I patients
Type: in vivo, human
Conditions: human, plasma, oral, 200 mg once daily, cycle 1, day 28; 200 mg once daily; dose-escalation cohort; n = 3; mean (standard deviation)
READOUT_KIND: Cmax (ng/mL)
Return type: number; implicit unit ng/mL.

Task: Query (molecule): COc1cc(N2CCC(N3CCN(C)CC3)CC2)ccc1Nc1ncnc(Nc2ccccc2S(=O)(=O)C(C)C)n1 [ASP3026] ; field requested: Cmax
Result: 682

----------
Assay: Plasma pharmacokinetics in phase I patients
Format: in vivo, human
Details: human, plasma, oral, 125 mg, cycle 1, day 28; 125 mg once daily; dose-escalation cohort; n = 1; calculated from accumulation ratio; read-out: t ½ (converted)
READOUT_KIND: half-life (h)
Return type: number; implicit unit h.

Task: Query (compound): COc1cc(N2CCC(N3CCN(C)CC3)CC2)ccc1Nc1ncnc(Nc2ccccc2S(=O)(=O)C(C)C)n1 [ASP3026] ; field requested: half-life
Result: 36.7

----------
Assay: Plasma pharmacokinetics in phase I patients
Type: in vivo, human
Details: human, plasma, oral, 800 mg, cycle 1, day 28; 800 mg once daily; dose-escalation cohort; n = 1
READOUT_KIND: Cmax (ng/mL)
Return type: number; implicit unit ng/mL.

Task: Query (compound): COc1cc(N2CCC(N3CCN(C)CC3)CC2)ccc1Nc1ncnc(Nc2ccccc2S(=O)(=O)C(C)C)n1 [ASP3026] ; field requested: Cmax
Result: 4850

----------
Assay: Plasma pharmacokinetics in phase I patients
Format: in vivo, human
Conditions: human, in vivo, accumulation half-life, mean (standard deviation)
READOUT_KIND: half-life (h)
Return type: number; implicit unit h.

Task: Query (molecule): COc1cc(N2CCC(N3CCN(C)CC3)CC2)ccc1Nc1ncnc(Nc2ccccc2S(=O)(=O)C(C)C)n1 [ASP3026] ; field requested: half-life
Result: 25

----------
Test: Plasma pharmacokinetics in phase I patients
Type: in vivo, human
Conditions: human, plasma, oral, 25 mg, cycle 1, day 28; 25 mg once daily; dose-escalation cohort; n = 3; mean (standard deviation); read-out: AUC24
READOUT_KIND: AUC
Entry format: amount then unit.

Task: Query (molecule): COc1cc(N2CCC(N3CCN(C)CC3)CC2)ccc1Nc1ncnc(Nc2ccccc2S(=O)(=O)C(C)C)n1 [ASP3026] ; field requested: AUC
Result: 1040 ng·h/mL
